- Test system: Trypanosoma brucei
- assay.info: Antitrypanosomal activity against Trypanosoma brucei S427 by microdilution method
- Format: functional, organism-based
pIC50: −log10 of the molar value.
measured.property: pIC50

Check out these entries, answers already filled in.
compound | target.desc | pIC50
C[C@H]1CC[C@]2(C(=O)O)CC[C@]3(C)C(=CC[C@@H]4[C@@]5(C)CC[C@H](O[C@@H]6OC[C@H](O)[C@H](O)[C@H]6O)[C@](C)(CO)[C@@H]5CC[C@]43C)[C@@H]2[C@]1(C)O [BREVICUSPISAPONIN 1] | Trypanosoma brucei | < 4.49
CC(=O)OC[C@H]1O[C@@H](OC(=O)[C@]23CC[C@@H](C)[C@@](C)(OC(C)=O)[C@H]2C2=CC[C@@H]4[C@@]5(C)CC[C@H](O[C@@H]6OC[C@H](OC(C)=O)[C@H](O[C@@H]7O[C@H](COC(C)=O)[C@@H](OC(C)=O)[C@H](OC(C)=O)[C@H]7OC(C)=O)[C@H]6OC(C)=O)C(C)(C)[C@@H]5CC[C@@]4(C)[C@]2(C)CC3)[C@H](OC(C)=O)[C@@H](OC(C)=O)[C@@H]1OC(C)=O [PERACETYL ILEXOSIDE II] | Trypanosoma brucei | < 4.49
CC1(C)CC[C@]2(C(=O)O)CC[C@]3(C)C(=CC[C@@H]4[C@@]5(C)CC[C@H](O[C@@H]6O[C@H](CO)[C@H](O)[C@H](O)[C@H]6O[C@@H]6O[C@H](CO)[C@@H](O)[C@H](O)[C@H]6O)C(C)(C)[C@@H]5CC[C@]43C)[C@@H]2C1 | Trypanosoma brucei | 5.40

Please give the measured pIC50 for this compound: "CC1(C)CC[C@]2(C(=O)O[C@@H]3O[C@H](CO)[C@@H](O)[C@H](O)[C@H]3O)CC[C@]3(C)C(=CC[C@@H]4[C@@]5(C)CC[C@H](O[C@@H]6O[C@H](CO)[C@H](O)[C@H](O)[C@H]6O[C@@H]6O[C@H](CO)[C@@H](O)[C@H](O)[C@H]6O)C(C)(C)[C@@H]5CC[C@]43C)[C@@H]2C1"
< 4.49

Please give the measured pIC50 for this compound: C[C@H]1[C@H](C)CC[C@]2(CO)CC[C@]3(C)C(=CC[C@@H]4[C@@]5(C)CC[C@H](O)C(C)(C)[C@@H]5CC[C@]43C)[C@H]12 [UVAOL]
< 4.49

Please give the measured pIC50 for this compound: C[C@H]1[C@H](C)CC[C@]2(C(=O)O[C@@H]3O[C@H](CO)[C@@H](O)[C@H](O)[C@H]3O)CC[C@]3(C)C(=CC[C@@H]4[C@@]5(C)CC[C@H](O[C@@H]6OC[C@H](O)[C@H](O[C@@H]7O[C@H](CO)[C@@H](O)[C@H](O)[C@H]7O)[C@H]6O)C(C)(C)[C@@H]5CC[C@]43C)[C@H]12 [MATESAPONIN 1]
< 4.49

Please give the measured pIC50 for this compound: C[C@H]1[C@H](C)CC[C@]2(C(=O)O)CC[C@]3(C)C(=CC[C@@H]4[C@@]5(C)CC[C@H](O)C(C)(C)[C@@H]5CC[C@]43C)[C@H]12 [URSOLIC ACID]
5.40
